Provide the reported Inh (PKA) of each item.
Test system: PRKACA-PRKAR2A interaction (SmBiT-PRKACA / LgBiT-PRKAR2A), protein kinase A
Design: NanoLuc complementation counter-screen in cell extract, PRKACA with PRKAR2A, loss of luminescence, detects NanoLuc interference
Details: counter-screen for NanoLuc interference; 0.5 h, 20 µM; inhibitor
Structures can show the parent of a compound that is named as a salt.
Answers are plain numbers, in %.

> print(dat)
                                   molecule  number
1  COc1cc2/c(=N/c3ccc(Br)cc3F)nc[nH]c2cc1OCC1CCN(C)CC1 [UM0127962:02, Vandetanib (ZD6474)]   5.275
2  CNC(=O)c1ccc(C)c(-n2c(C)cc(OCc3ccc(F)cc3F)c(Br)c2=O)c1 [UM0141978:01, PH-797804]   5.099
3  CC(C)(C)C(O)/C(=C\c1ccc(Cl)cc1)n1cncn1 (stereo not shown) [UM0142839:01, Uniconazole]   40.56

I'm hoping you can list Inh (PKA) for every molecule here, please.
1. O=C(/C=C/c1ccc(CN(CCO)CCc2c[nH]c3ccccc23)cc1)NO [UM0141707:01, LAQ824 (NVP-LAQ824,Dacinostat)]
2. CN(C)CCCC1(c2ccc(F)cc2)OCc2cc(C#N)ccc21 (stereo not shown) [UM0142779:01, Citalopram hydrobromide]
3. Cc1ccc2c(=O)c3cccc(CC(=O)O)c3oc2c1C [UM0141964:01, DMXAA (Vadimezan)]
4. CCN1CCN(C(=O)Cc2ccc(Nc3ncc(F)c(Nc4ccc(C(=O)Nc5ccccc5Cl)cc4)n3)cc2)CC1 [UM0141723:01, Aurora A Inhibitor I]
5. CN(C)c1ccc(C(=O)NCCCCCCC(=O)NO)cc1 [UM0141709:01, M344]

1: 3.4; 2: 0.9875; 3: 2.691; 4: 22.92; 5: 1.639

---

Biological target: MeCP2-TBL1 interaction (MeCP2-SmBiT / TBL1-LgBiT) (Mus musculus, UniProt Q9QXE7)
Construct: expressed in transfected cells; crude lysate used as a cell-free assay
Sequence (Q9QXE7 166-527): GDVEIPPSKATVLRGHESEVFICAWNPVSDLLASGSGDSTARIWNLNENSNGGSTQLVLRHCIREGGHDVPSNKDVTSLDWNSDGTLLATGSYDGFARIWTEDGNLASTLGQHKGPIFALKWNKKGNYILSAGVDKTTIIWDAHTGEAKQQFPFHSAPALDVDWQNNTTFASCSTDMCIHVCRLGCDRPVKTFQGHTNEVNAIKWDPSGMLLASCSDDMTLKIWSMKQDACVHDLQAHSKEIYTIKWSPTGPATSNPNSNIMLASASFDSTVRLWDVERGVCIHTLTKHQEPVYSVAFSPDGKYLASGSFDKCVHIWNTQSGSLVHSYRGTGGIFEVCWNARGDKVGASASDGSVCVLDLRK
Assay: MeCP2-TBL1 NanoLuc luciferase complementation assay (cell-free, extracts of transfected HEK293 cells);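 note: each compound tested at 20 µM final concentration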
Type: binding, human
Conditions: primary screen of Asinex library, single well per compound
What Inhibition percent was measured for each of the following?
Answers are plain numbers.

Examples with their reported Inhibition percent follow.
> print(dat)
                                   compound                              study.target  number
1  CN(Cc1ccccc1)[C@@H]1[C@@H](O)[C@H](Oc2cccc(C(F)(F)F)c2)C[C@H]1NC(=O)CCN  MeCP2-TBL1 interaction (MeCP2-SmBiT / TBL1-LgBiT) (Mus musculus, UniProt Q9QXE7)   -1.01
2  CN(C)c1ncc(-c2cccc(C(N)=O)c2)c(C2CCCCN2CC(=O)NCc2ccccn2)n1 (stereo not drawn)  MeCP2-TBL1 interaction (MeCP2-SmBiT / TBL1-LgBiT) (Mus musculus, UniProt Q9QXE7)   -2.55
3  O=C(c1cccc(Oc2ncccn2)c1)N1CCCC2(CC1)CN(c1cccc(F)c1)C(=O)O2 (stereo not drawn)  MeCP2-TBL1 interaction (MeCP2-SmBiT / TBL1-LgBiT) (Mus musculus, UniProt Q9QXE7)   -4.84

For every item below, please supply its Inhibition percent.
1. COc1cccc(C2CN(Cc3ccccc3)C(=O)C23CCN(Cc2ccc(C(=O)O)cc2)CC3)c1 (stereo not drawn)
2. CC(=O)NCCCCCC(=O)N1C[C@@H](c2ccc(F)cc2)[C@@]2(CCCCC(=O)N2)C1
3. O=C(OCc1ccccc1)N1C[C@@H](O)[C@H](N(Cc2ccccc2)Cc2ccc(F)c(F)c2)C1
4. CN(C)C(=O)[C@@H]1C[C@@H](n2cc(C(=O)NCCc3ccccc3)ccc2=O)[C@H](c2ccccc2)N1C
5. O=C(N1CCC(Cc2cccc3cccnc23)CC1)C1(c2ccccc2)CCOCC1
6. C[C@]12C[C@@H](Cc3ccccc3)N(C(=O)CCNC(=O)c3cccnc3)[C@H]1CCCC(=O)N2

1. 0.45
2. 3.80
3. 12.36
4. 1.80
5. 6.68
6. 0.80

Below are some compounds; for each one, tell me its Inhibition percent.
1. Cc1c(NC(=O)CN2[C@H](Cc3ccccc3)C[C@]3(C)NC(=O)CCC[C@H]23)cnn1C
2. C[C@]12C[C@@H](Cc3ccccc3)N(C(=O)c3cccc(Cn4ccnc4)c3)[C@H]1CCCC(=O)N2

1: 0.23; 2: 5.72

For each listed entry, give its Inhibition percent.
1. O=C(CN1CCNCC1c1ccc(C(F)(F)F)cc1)NC(c1ccccc1)c1ccccc1 (stereo not drawn)
2. CCN1CCN(C(=O)CCC2NC(=O)NC2=O)C(Cc2ccc(-c3ccccc3)cc2)C1=O (stereo not drawn)
3. O=C(O)CCC(=O)N[C@@H]1C[C@@H](Oc2cccc(C(F)(F)F)c2)[C@H](O)[C@H]1N1CCc2ccccc2C1
4. CCOc1cccc2c1OC(C)(C)[C@H]1CC3(CCN(Cc4cnc(NC)nc4)CC3)CO[C@H]21

[-0.43, -2.65, -0.28, -4.17]

Origin of values: paper PMC9995496
